Reference source: patent US20210155689A1

system tested: T1, LAG-3-hFc protein (human LAG-3 extracellular region with hFc tag) (human, UniProt P18627 23-450)
T1 construct: also called hLAG-3-hFc; LAG-3 protein; not shown: human IgG Fc fragment (hFc) of the pCpC vector
T1 sequence: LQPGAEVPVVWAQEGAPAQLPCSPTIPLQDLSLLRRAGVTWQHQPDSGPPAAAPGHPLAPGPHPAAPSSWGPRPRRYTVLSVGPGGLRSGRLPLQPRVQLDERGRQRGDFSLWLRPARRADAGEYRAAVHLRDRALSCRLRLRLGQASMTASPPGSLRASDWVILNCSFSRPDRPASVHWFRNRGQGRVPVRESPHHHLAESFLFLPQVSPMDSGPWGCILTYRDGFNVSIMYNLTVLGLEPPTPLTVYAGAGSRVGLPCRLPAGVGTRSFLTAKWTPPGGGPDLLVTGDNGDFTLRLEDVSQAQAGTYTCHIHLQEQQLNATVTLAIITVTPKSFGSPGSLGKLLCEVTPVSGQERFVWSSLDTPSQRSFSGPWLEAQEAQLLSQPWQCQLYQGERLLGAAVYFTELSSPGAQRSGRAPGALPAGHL
protocol notes: FACS, inhibition of LAG-3-hFc binding to MHC II on Raji cells, antibody 66.667 nM
quantity kind: Inhibition rate (%)

556F6B8 mouse-human chimeric antibody (antibody, V domains shown, also called mAb123-556F6B8; 556F8B8) VH: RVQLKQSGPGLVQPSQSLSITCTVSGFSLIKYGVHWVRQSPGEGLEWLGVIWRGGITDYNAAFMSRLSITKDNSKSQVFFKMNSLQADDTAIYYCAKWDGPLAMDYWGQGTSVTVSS VL: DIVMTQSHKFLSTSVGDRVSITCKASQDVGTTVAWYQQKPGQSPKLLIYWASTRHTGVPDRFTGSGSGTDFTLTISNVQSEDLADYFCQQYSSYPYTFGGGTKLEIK; 96%

Consider the binder shown here: 409D4E10 mouse-human chimeric antibody (antibody, V domains shown, also called mAb112-409D4E10) VH: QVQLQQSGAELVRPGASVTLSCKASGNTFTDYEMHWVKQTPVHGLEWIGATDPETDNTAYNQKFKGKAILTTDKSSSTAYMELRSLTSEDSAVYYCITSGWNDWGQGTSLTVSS VL: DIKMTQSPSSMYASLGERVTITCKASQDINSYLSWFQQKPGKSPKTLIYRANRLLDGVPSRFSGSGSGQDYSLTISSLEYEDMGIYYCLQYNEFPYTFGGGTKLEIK What is its recorded Inhibition rate (%)? 95.9%

Quick check: Inhibition rate (%) of 405B8H3 mouse-human chimeric antibody (antibody, V domains shown, also called mAb103-405B8H3) VH: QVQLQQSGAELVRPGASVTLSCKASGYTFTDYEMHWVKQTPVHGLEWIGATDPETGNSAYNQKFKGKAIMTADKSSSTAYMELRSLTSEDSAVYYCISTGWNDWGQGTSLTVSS VL: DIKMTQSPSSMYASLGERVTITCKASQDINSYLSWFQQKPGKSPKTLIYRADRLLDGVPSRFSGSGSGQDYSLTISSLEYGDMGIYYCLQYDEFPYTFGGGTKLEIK ? 95.8%

Value lookup for Inhibition rate (%); key = 409B11E12 mouse-human chimeric antibody (antibody, V domains shown, also called mAb104-409B11E12) VH: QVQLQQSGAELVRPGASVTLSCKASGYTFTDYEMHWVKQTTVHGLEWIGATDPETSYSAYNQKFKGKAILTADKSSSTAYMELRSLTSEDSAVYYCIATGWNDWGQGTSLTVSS VL: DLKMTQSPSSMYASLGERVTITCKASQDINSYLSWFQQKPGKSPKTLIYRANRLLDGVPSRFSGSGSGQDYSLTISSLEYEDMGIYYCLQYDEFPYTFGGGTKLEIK 95.3%

Inhibition rate (%) lookup needed for 105F1E10 mouse-human chimeric antibody (antibody, V domains shown, also called mAb009-105F1E10) VH: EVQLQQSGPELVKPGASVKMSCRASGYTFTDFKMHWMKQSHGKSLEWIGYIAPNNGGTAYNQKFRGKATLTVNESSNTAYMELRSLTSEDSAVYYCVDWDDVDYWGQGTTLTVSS VL: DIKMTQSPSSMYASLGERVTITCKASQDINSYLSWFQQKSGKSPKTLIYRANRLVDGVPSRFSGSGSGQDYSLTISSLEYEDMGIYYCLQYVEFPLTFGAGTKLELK , thanks. 96%
